Reference source for all entries: PubChem BioAssay (NCI)

- Test system: M14 melanoma
- assay text: NCI tumour cell line growth inhibition, 48 h
measurement kind: TGI

| compound | result |
| --- | --- |
| CCCOP1(=O)C=C(O)C(Cl)=C(C)C1 (stereo unspecified) | > 100 µM |
| NCCCCCCn1c(-c2ccc(Br)cc2)csc1=Nc1ccccc1 | 3.17 µM |
| O=Cc1c(O)ccc2ccc(O)c(-c3c(O)ccc4ccc(O)cc34)c12 | > 100 µM |
| COc1cccc(/C=C/c2ccc(S(N)(=O)=O)cc2)c1 | > 100 µM |
| c1cc(-c2ccc(-c3ccc(-c4ccc(-c5cccc6nsnc56)[nH]4)c4nsnc34)[nH]2)c2nsnc2c1 | > 100 µM |
| N#Cc1c2c(c(Cl)n3c1nc1ccccc13)CCCC2 | 11.3 µM |
| Cc1cc(C#N)c[n+](C)c1 | > 100 µM |
| O=C1C(Cl)=C(Nc2cccc(O)c2)C(=O)N1CCc1ccccc1 | 37.9 µM |
| COc1cc(C(=O)c2c(-c3ccccc3)oc3c(OC)cccc23)cc(OC)c1O | > 100 µM |
| Cc1nn(C(=O)c2ccccc2O)c2c1C(c1ccccc1O)SC(N)=N2 (stereo unspecified) | > 10 µM |
| C=CCN(Cc1ccncc1)C(=O)C(O)(c1ccccc1)c1ccccc1 | > 100 µM |
